tested on: Rattus norvegicus; test: Analgesic activity in sc dosed rat assessed as reduction in phenylquinone-induced writhing administered 15 mins prior to phenylquinone-challenge measured up to 10 mins; type: functional
A collection of compounds and their measured ED50
The reply should contain only the number, in mg/kg.

Worked cases, ED50 given:
compound: CCC[C@]12CCN(CC3CC3)[C@H](Cc3ccc(O)cc31)[C@@]2(C)O
reported_result: 30

compound: Oc1ccc2c(c1)[C@@]13CCCC[C@@]1(O)[C@@H](C2)N(CC1CC1)CC3
reported_result: 8

compound: C=CC[C@]12CCN(CC3CC3)[C@H](Cc3ccc(O)cc31)[C@@]2(C)O.O=C(O)C(O)C(O)C(=O)O (stereo in doubt; (-)-23a)
reported_result: 8

Problem: Query (compound): Oc1ccc2c(c1)[C@@]13CCCC[C@@]1(O)[C@@H](C2)N(CC1CCC1)CC3 ; field requested: ED50
Result: 0.04

Problem: Query (compound): C=CC[C@]12CCN(CC3CCC3)[C@H](Cc3ccc(O)cc31)[C@@]2(C)O.O=C(O)C(O)C(O)C(=O)O (stereo in doubt; (-)-23b) ; field requested: ED50
Result: 0.01
